# Test system: Blattella germanica (cockroach nymphs)
# Procedure summary: Residual test, cockroach nymphs (BG), Plastic pot
# Type: in vivo
# Experimental conditions: 72 h, 250 ppm, 3 days, read-out: BG grading of mortality
# Protocol: The activity of the Product was determined using a variety of insect pests. The Product was used in the form of liquid preparations containing from 100 to 500 parts per million (ppm) by weight of the Product. […] The mortality of the pests was then assessed at periods usually varying from one to seven days after the treatment.
Quantity kind: mortality at 250 ppm

# molecule FC(F)(F)Oc1ccc(C(F)(CCCc2cccc(Oc3ccccc3)c2)C(F)(F)F)cc1 (racemic) ; its mortality at 250 ppm = 80 to 100%

# molecule CCOc1ccc(C(C/C=C/c2cccc(Oc3ccccc3)c2)C(F)(F)F)cc1 (centres unmarked) ; its mortality at 250 ppm = < 50%

# molecule CC(C)(C)c1ccc(C(CCCc2cccc(Oc3ccccc3)c2)C(F)(F)F)cc1 (racemic) ; its mortality at 250 ppm = 80 to 100%

# molecule FC(F)(F)C(CCCc1cccc(Oc2ccccc2)c1)c1ccc2c(c1)CCC2 (racemic) ; its mortality at 250 ppm = 80 to 100%

# molecule FC(F)(F)C(=CCCc1cccc(Oc2ccccc2)c1)c1ccc(C(F)(F)F)cc1 ; its mortality at 250 ppm = 80 to 100%
